Data provenance: ChEMBL document CHEMBL2010735

# System: PC-3
# Experiment Notes: Cytotoxicity against human PC3 cells after 6 days by MTT assay
# Format: functional, cell-based
# Measurement Parameters: PC-3, 144 h
pIC50: −log10 of the molar value.
Readout Label: pIC50

Please review the entries below; each comes with its answer.
COc1cc(O)c2c(c1)[C@H](O)[C@H]1C[C@](C)(O)[C@H](OC(C)=O)C[C@@H]1C2=O
< 4.00
COc1cc(O)c2c(c1)C(=O)c1cc(C)c(O)c(-c3c(OC)cc4c(c3O)C(=O)C3=C(C4=O)[C@@H](O)[C@](C)(O)[C@H](O)C3)c1C2=O
5.19
COc1cc(O)c2c(c1)[C@H](O)[C@@H]1C(=C[C@@H](O)[C@@](C)(O)[C@@H]1O)C2=O (relative stereo)
< 4.00

Field: next molecule
Request: What value of measured pIC50 is listed for "COc1cc(O)c2c(c1)C(=O)C1=C(C[C@@H](O)[C@@](C)(O)C1)C2=O" ?
Result: < 4.00

====

# System: Staphylococcus
# Experiment Notes: Antibacterial activity against Staphylococcus albus after 18 hrs by MTT assay
# Type: functional
# Measurement Parameters: in the assay text read “by broth dilution assay” for “by MTT assay”
Readout Label: MIC (µM)
Give bare numbers, in µM.

Examples with answers:
O=C(O)c1cn(C2CC2)c2cc(N3CCNCC3)c(F)cc2c1=O
0.31
COc1cc(O)c2c(c1)C(=O)C1=C(C[C@@H](O)[C@@](C)(O)[C@@H]1O)C2=O
12

Shifting focus to the compound that follows.
Request: Please give the measured MIC for this compound: "COc1cc(O)c2c(c1)C(=O)c1cc(C)c(O)cc1C2=O"
Result: 15

====

# Test system: HCT-116
# Experiment Notes: Cytotoxicity against human HCT116 cells after 6 days by MTT assay
# Format: functional, cell-based
# Measurement Parameters: HCT-116, 144 h
pIC50: −log10 of the molar value.
Record form. Attribute: pIC50. Fill in for each entry.

COc1cc(O)c2c(c1)[C@H](O)[C@H]1C[C@](C)(O)[C@@H](O)C[C@@H]1C2=O (relative stereo) [TETRAHYDROALTERSOLANOL E]
< 4.00
COc1cc(O)c2c(c1)[C@H](O)[C@H]1C[C@](C)(O)[C@H](OC(C)=O)C[C@@H]1C2=O
< 4.00

Please state, for each entry, its recorded pIC50.
1. COc1cc(O)c2c(c1)[C@H](O)[C@@H]1C(=C[C@@H](O)[C@@](C)(O)[C@@H]1O)C2=O (relative stereo)
2. COc1cc(O)c2c(c1)[C@@H](O)[C@H]1C[C@](C)(O)[C@H](O)C[C@@H]1C2=O (relative stereo) [TETRAHYDROALTERSOLANOL C]
3. COc1cc(O)c2c(c1)C(=O)c1cc(C)c(O)c(-c3c(OC)cc4c(c3O)C(=O)C3=C(C4=O)[C@@H](O)[C@](C)(O)[C@H](O)[C@H]3O)c1C2=O [ALTERPORRIOL C]
4. COc1cc(O)c2c(c1)[C@H](O)[C@H]1C[C@](C)(O)[C@H](O)C[C@@H]1C2=O [TETRAHYDROALTERSOLANOL B]
5. COc1cc(O)c2c(c1)C(=O)C1=C(C[C@@H](O)[C@@](C)(O)[C@@H]1O)C2=O [ALTERSOLANOL C]
6. COc1cc(O)c2c(c1)[C@H](O)[C@@H]1[C@@H](C2=O)[C@H](O)[C@@H](O)[C@@](C)(O)[C@@H]1O [AMPELANOL]
7. COc1cc(O)c2c(c1)[C@H](O)[C@@H]1[C@H](C[C@@H](O)[C@@](C)(O)[C@@H]1O)C2=O [ALTERSOLANOL L]
8. COc1cc(O)c2c(c1)C(=O)c1cc(C)c(O)c(-c3c(OC)cc4c(c3O)C(=O)C3=C(C4=O)[C@@H](O)[C@](C)(O)[C@H](O)C3)c1C2=O [ALTERPORRIOL P]

Result:
1: < 4.00; 2: < 4.00; 3: 4.62; 4: < 4.00; 5: 5.66; 6: < 4.00; 7: < 4.00; 8: 5.07

====

# Experiment Notes: Cytotoxicity against human MCF7/ADR cells after 6 days by MTT assay
# Format: functional, cell-based
# Measurement Parameters: NCI/ADR-RES, 144 h
Exercise: for every item that follows, state its recorded IC50.

Provide IC50 values for the following items, in order.
1. COc1cc(O)c2c(c1)[C@H](O)[C@@H]1C(=C[C@@H](O)[C@@](C)(O)[C@@H]1O)C2=O (relative stereo)
2. COc1cc(O)c2c(c1)[C@H](O)[C@@H]1C[C@](C)(O)[C@H](O)C[C@H]1C2=O (relative stereo)
3. COc1cc(O)c2c(c1)C(=O)c1cc(C)c(O)c(-c3c(OC)cc4c(c3O)C(=O)C3=C(C4=O)[C@@H](O)[C@](C)(O)[C@H](O)C3)c1C2=O [ALTERPORRIOL P]

Result:
> 100 µM
> 100 µM
23 µM

List IC50 for every entry below, keeping the order given.
1. COc1cc(O)c2c(c1)[C@H](O)[C@@H]1[C@@H](C2=O)[C@H](O)[C@@H](O)[C@@](C)(O)[C@@H]1O [AMPELANOL]
2. COc1cc(O)c2c(c1)[C@H](O)[C@H]1C[C@](C)(O)[C@@H](O)C[C@@H]1C2=O (relative stereo) [TETRAHYDROALTERSOLANOL E]

Result:
> 100 µM
> 100 µM

====

Could you please report measured pIC50 for the items listed next?
# Test system: PC-3
# Experiment Notes: Cytotoxicity against human PC3 cells after 6 days by MTT assay
# Type: functional, cell-based
# Measurement Parameters: PC-3, 144 h
pIC50: −log10 of the molar value.

Some solved entries appear below for comparison.
COc1cc(O)c2c(c1)C(=O)C1=C(C[C@@H](O)[C@@](C)(O)[C@@H]1O)C2=O
5.12
COc1cc(O)c2c(c1)[C@@H](O)[C@H]1C[C@](C)(O)[C@H](O)C[C@@H]1C2=O (relative stereo) [TETRAHYDROALTERSOLANOL C]
< 4.00

Request: Notebook entry, PC-3 assay: pIC50 of COc1cc(O)c2c(c1)[C@H](O)[C@H]1C[C@](C)(O)[C@H](O)C[C@@H]1C2=O [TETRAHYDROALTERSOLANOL B] = ?
Result: < 4.00

====

# System: PC-3
# Experiment Notes: Cytotoxicity against human PC3 cells after 6 days by MTT assay
# Assay type: functional, cell-based
# Measurement Parameters: PC-3, 144 h
Readout Label: IC50

Please review the following examples before continuing.
COc1cc(O)c2c(c1)C(=O)c1cc(C)c(O)c(-c3c(OC)cc4c(c3O)C(=O)C3=C(C4=O)[C@@H](O)[C@](C)(O)[C@H](O)[C@H]3O)c1C2=O [ALTERPORRIOL C]
27 µM
COc1cc(O)c2c(c1)[C@H](O)[C@@H]1[C@@H](C2=O)[C@H](O)[C@@H](O)[C@@](C)(O)[C@@H]1O [AMPELANOL]
> 100 µM
COc1cc(O)c2c(c1)[C@H](O)[C@@H]1[C@H](C[C@@H](O)[C@@](C)(O)[C@@H]1O)C2=O [ALTERSOLANOL L]
> 100 µM
COc1cc(O)c2c(c1)[C@H](O)[C@@H]1C[C@](C)(O)[C@H](O)C[C@H]1C2=O (relative stereo)
> 100 µM

Please state, for each entry, its recorded IC50.
1. COc1cc(O)c2c(c1)[C@H](O)[C@H]1C[C@](C)(O)[C@@H](O)C[C@@H]1C2=O (relative stereo) [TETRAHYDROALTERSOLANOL E]
2. COc1cccc2c1C(=O)c1c(O)c3c(c(O)c1C2=O)C[C@@](O)(C(=O)CO)C[C@@H]3O[C@H]1C[C@H](N)[C@@H](O)[C@H](C)O1 [EPIRUBICIN]

Result:
["> 100 µM", "0.46 µM"]

====

# System: HCT-116
# Experiment Notes: Cytotoxicity against human HCT116 cells after 6 days by MTT assay
# Assay type: functional, cell-based
# Measurement Parameters: HCT-116, 144 h
I'd be grateful if you could share measured IC50 for these entries.

As a guide, the following entries are already answered.
COc1cccc2c1C(=O)c1c(O)c3c(c(O)c1C2=O)C[C@@](O)(C(=O)CO)C[C@@H]3O[C@H]1C[C@H](N)[C@@H](O)[C@H](C)O1 [EPIRUBICIN]
0.82 µM
COc1cc(O)c2c(c1)[C@H](O)[C@@H]1C[C@](C)(O)[C@H](O)C[C@H]1C2=O (relative stereo)
> 100 µM

Now turn to the next molecule.
Request: Could you tell me which IC50 is on file for COc1cc(O)c2c(c1)C(=O)C1=C(C[C@@H](O)[C@@](C)(O)C1)C2=O [ALTERSOLANOL B] ?
Result: > 100 µM
